The reported measurements were obtained from ChEMBL document CHEMBL4811232.

test: in vitro; details: human, pooled liver microsomes
Description: Metabolic stability in human pooled liver microsomes assessed as parent compound remaining at 0.1 uM measured after 30 mins in presence of NADPH by LC-MS/MS analysis
measurement name: remaining at 0.5 h, 0.1 µM (%)

Take a look at these entries with their results.
smiles code	remaining at 0.5 h, 0.1 µM, %
C=C1C[C@@](C)(c2cc(NC(=O)c3ccc(C#N)cn3)ccc2F)N=C(N)S1	65
C[C@@]1(c2cc(NC(=O)c3ccc(C#N)cn3)ccc2F)CCSC(N)=N1	104
N#Cc1ccc(C(=O)Nc2ccc(F)c([C@]3(CF)CCSC(N)=N3)c2)nc1	86

[a] C[C@@]1(c2cc(NC(=O)c3ncc(C#N)cc3Cl)ccc2F)C=CSC(N)=N1
[b] COc1cnc(C(=O)Nc2ccc(F)c([C@]3(C)C=CSC(N)=N3)c2)cn1
Identify the entry with the smaller remaining at 0.5 h, 0.1 µM: a or b . Answer format: the label of the selected item.
b
(b: 27%, a: 85%)
